System: UniProt:P42261
Assay Text: Antagonist activity at human iGluA1 receptor flop isoform expressed in CHO-S cells coexpressing TARP gamma-8 and human EAAT3 assessed as inhibition of glutamate-induced increase in intracellular calcium levels after 2 mins followed by cyclothiazide/glutamate addition by fluo-4 AM dye based fluorescence imaging plate reader method
Assay type: cell-based
Recorded Metric: pIC50
Recall that pIC50 is obtained by taking minus log10 of the concentration measured in molar.

> print(dat)
                                item.smiles  recorded.metric  quantitative.result
1  N#Cc1ccccc1-c1cc(-c2ccccn2)cn(-c2ccccc2)c1=O            pIC50                 5.93
2    CN(c1ccc2[nH]ncc2c1)c1nc(-c2ccccn2)cs1            pIC50                 6.83
3  C[C@@H](c1ccc2[nH]c(=O)sc2c1)c1ccn(-c2ccc(CCO)cn2)n1            pIC50                 7.21
4  C[C@@H](c1ccc2[nH]c(=O)sc2c1)c1ccn(-c2ccc(F)cn2)n1            pIC50                 7.27
5  C[C@H](c1ccc2[nH]c(=O)sc2c1)c1ccn(-c2ccc(OCCO)cn2)n1            pIC50                 5.75

As a next step, examine the molecule that follows.
Q. I am curious: what pIC50 value has been reported for C[C@@H](c1ccc2[nH]c(=O)sc2c1)c1ccn(-c2ccc(OCCO)cn2)n1 ?
A. 7.19

---

System: Glutamate receptor 1 (Homo sapiens)
Assay Text: Antagonist activity at human iGluA1 receptor flop isoform expressed in CHO-S cells coexpressing TARP gamma-4 assessed as inhibition of glutamate-induced increase in intracellular calcium levels after 2 mins followed by cyclothiazide/glutamate addition by fluorescence imaging plate reader method
Type: cell-based
Recorded Metric: IC50 (nM)
Give a bare numeral; the unit nM is implied.

Q. Need IC50 of N#Cc1ccccc1-c1cc(-c2ccccn2)cn(-c2ccccc2)c1=O [PERAMPANEL] , thanks.
A. 623

---

Assay Text: AUC in rat plasma at 30 mg/kg, po measured on day 4
Assay type: ADME, organism-based
Recorded Metric: AUC (ng·h/mL)
Report only the number, with the unit ng·h/mL understood.

Q. Recorded AUC of CN(c1ccc2[nH]ncc2c1)c1nc(-c2ccccn2)cs1 , please.
A. 3150

---

Reported values of IC50 for individual entries
System: Glutamate receptor 1 (Homo sapiens, UniProt P42261)
Sequence (P42261 whole entry, canonical isoform): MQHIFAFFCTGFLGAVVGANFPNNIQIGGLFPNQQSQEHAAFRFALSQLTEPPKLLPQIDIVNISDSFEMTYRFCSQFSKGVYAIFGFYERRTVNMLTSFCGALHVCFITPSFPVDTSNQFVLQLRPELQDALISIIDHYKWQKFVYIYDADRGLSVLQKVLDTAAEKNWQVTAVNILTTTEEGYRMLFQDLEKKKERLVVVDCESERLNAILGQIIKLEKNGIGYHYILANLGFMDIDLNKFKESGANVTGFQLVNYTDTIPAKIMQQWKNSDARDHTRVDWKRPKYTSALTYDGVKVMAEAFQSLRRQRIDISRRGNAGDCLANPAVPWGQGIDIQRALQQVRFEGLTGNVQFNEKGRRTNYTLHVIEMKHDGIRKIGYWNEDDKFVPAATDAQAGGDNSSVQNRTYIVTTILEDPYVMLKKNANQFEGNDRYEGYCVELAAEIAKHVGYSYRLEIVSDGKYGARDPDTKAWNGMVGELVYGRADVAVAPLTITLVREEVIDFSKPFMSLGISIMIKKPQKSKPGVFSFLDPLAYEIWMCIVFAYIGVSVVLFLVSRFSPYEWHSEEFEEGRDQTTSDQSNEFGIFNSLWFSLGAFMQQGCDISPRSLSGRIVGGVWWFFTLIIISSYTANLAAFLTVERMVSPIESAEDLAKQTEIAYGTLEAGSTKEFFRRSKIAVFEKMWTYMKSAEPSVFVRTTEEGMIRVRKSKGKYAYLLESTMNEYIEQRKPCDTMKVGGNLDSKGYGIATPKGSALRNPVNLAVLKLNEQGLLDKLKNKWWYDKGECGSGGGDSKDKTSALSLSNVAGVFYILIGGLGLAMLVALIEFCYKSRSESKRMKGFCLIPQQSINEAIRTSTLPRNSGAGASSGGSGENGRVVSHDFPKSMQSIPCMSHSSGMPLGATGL
Assay Text: Antagonist activity at human iGluA1 receptor flip isoform expressed in CHO-S cells assessed as inhibition of glutamate-induced increase in intracellular calcium levels after 2 mins followed by cyclothiazide/glutamate addition by fluo-4 NW dye based fluorescence imaging plate reader method
Format: cell-based
State the answer as a number, implicitly in µM.

> print(dat)
                                item.smiles                                    system  recorded.metric  quantitative.result
1  Cn1ccc(CN(c2ccc3[nH]ncc3c2)c2nc(-c3ccccn3)cs2)n1  Glutamate receptor 1 (Homo sapiens, UniProt P42261)             IC50                 83.3

# input for lookup
Q. Which IC50 value belongs to C[C@@H](c1ccc2[nH]c(=O)sc2c1)c1ccn(-c2ccc(CCO)cn2)n1 ?
A. 83.3
